Molecular target: CRTH2 (Homo sapiens, UniProt Q9Y5Y4)
Experiment: Radioligand binding Scintillation Proximity Assay ([3H]PGD2, hCRTH2-CHO cell membranes)
Set-up: host or cells: CHO cells
Conditions: 1.5 nM [3H]PGD2, hCRTH2-CHO cell membranes, SPA
pIC50: −log10 of the molar value.
measure: pIC50

The examples below pair each entry with its known result.
[
  {
    "molecule": "O=C(O)COc1ccc(Cl)cc1C#Cc1ccccc1C(F)(F)F",
    "subjectOfTest": "CRTH2 (Homo sapiens, UniProt Q9Y5Y4)",
    "pIC50": 7.52
  },
  {
    "molecule": "CCCS(=O)(=O)c1cccc(C#Cc2cc(-c3cnn(C)c3)ccc2OCC(=O)O)c1",
    "subjectOfTest": "CRTH2 (Homo sapiens, UniProt Q9Y5Y4)",
    "pIC50": 6.28
  },
  {
    "molecule": "CCN(CC)C(=O)c1ccc(C#Cc2cc(Cl)ccc2OCC(=O)O)cc1S(=O)(=O)C(C)C",
    "subjectOfTest": "CRTH2 (Homo sapiens, UniProt Q9Y5Y4)",
    "pIC50": 7.28
  }
]

1. CC1(C)C(O)c2ccc(C#Cc3cc(Cl)ccc3OCC(=O)O)cc2S1(=O)=O (stereo not drawn)
2. Cc1ccncc1C#Cc1cc(C#N)ccc1OCC(=O)O
3. CS(=O)(=O)Nc1cncc(C#Cc2cc(Cl)ccc2OCC(=O)O)c1
4. CCCS(=O)(=O)c1ccc(C)c(C#Cc2cc(Cl)ccc2OCC(=O)O)c1
Exam item: Reorder the items by pIC50, least to greatest. Hello, could you send the labels back in the order asked? Thank you.
Marked response: 2, 1, 3, 4
(2: 7.22, 1: 7.43, 3: 7.64, 4: 8.30)

---

Biological target: CRTH2 (Homo sapiens)
Assay: Radioligand binding Scintillation Proximity Assay ([3H]PGD2, hCRTH2-CHO cell membranes)
Design: host or cells: CHO cells
Conditions: 1.5 nM [3H]PGD2, hCRTH2-CHO cell membranes, SPA
pIC50: −log10 of the molar value.
measure: pIC50

The examples below pair each entry with its known result.
[
  {
    "compound": "CN(C)S(=O)(=O)c1cncc(C#Cc2cc(Cl)ccc2OCC(=O)O)c1 [Example 35]",
    "recordedResult": 7.26
  },
  {
    "compound": "Cc1ccncc1C#Cc1cc(Cl)ccc1OCC(=O)O [Example 15]",
    "recordedResult": 7.52
  },
  {
    "compound": "N#Cc1ccc(OCC(=O)O)c(C#Cc2ccccc2Cl)c1 [Example 23]",
    "recordedResult": 7.52
  },
  {
    "compound": "O=C(O)COc1ccc(Cl)cc1C#Cc1cccc(C(F)(F)F)c1 [Example 7]",
    "recordedResult": 6.95
  }
]

1. CCCCN(C)S(=O)(=O)c1ccc(C)c(C#Cc2cc(Cl)ccc2OCC(=O)O)c1 [Example 111]
2. Cc1nc(C)c(C#Cc2cc(Cl)ccc2OCC(=O)O)s1 [Example 24]
3. CCCS(=O)(=O)c1cccc(C#Cc2cc(C#N)ccc2OCC(=O)O)c1 [Example 32]
4. CC(C)c1ccc(S(C)(=O)=O)cc1C#Cc1cc(C#N)ccc1OCC(=O)O [Example 71]
5. CS(=O)(=O)c1ccc(N2CCCCC2)c(C#Cc2cc(C#N)ccc2OCC(=O)O)c1 [Example 62]
Exam item: Falling order of pIC50, please. Hello, could you send the labels back in the order asked? Thank you.
Marked response: 1, 4, 3, 2, 5

---

Molecular target: UniProt Q9Y5Y4
Sequence (Q9Y5Y4 1-395): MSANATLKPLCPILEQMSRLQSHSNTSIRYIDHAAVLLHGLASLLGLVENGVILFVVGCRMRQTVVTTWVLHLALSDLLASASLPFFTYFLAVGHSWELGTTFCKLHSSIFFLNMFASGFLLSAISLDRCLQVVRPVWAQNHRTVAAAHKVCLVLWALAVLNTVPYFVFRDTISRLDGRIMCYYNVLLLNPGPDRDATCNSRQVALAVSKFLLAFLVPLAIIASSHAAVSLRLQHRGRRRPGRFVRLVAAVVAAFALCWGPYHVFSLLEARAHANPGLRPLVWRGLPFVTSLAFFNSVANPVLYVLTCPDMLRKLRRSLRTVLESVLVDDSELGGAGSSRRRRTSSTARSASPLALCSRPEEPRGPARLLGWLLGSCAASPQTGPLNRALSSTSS
Experiment: Radioligand binding Scintillation Proximity Assay ([3H]PGD2, hCRTH2-CHO cell membranes)
Design: host or cells: CHO cells
Settings: 1.5 nM [3H]PGD2, hCRTH2-CHO cell membranes, SPA
pIC50: −log10 of the molar value.
measure: pIC50

The examples below pair each entry with its known result.
[
  {
    "compound": "CCCS(=O)(=O)c1cccc(C#Cc2cc(-c3c(C)nn(C)c3C)ccc2OCC(=O)O)c1 [Example 136]",
    "subjectOfTest": "UniProt Q9Y5Y4",
    "pIC50": 6.44
  },
  {
    "compound": "Cn1ccnc1C#Cc1cc(Cl)ccc1OCC(=O)O [Example 11]",
    "subjectOfTest": "UniProt Q9Y5Y4",
    "pIC50": 5.75
  },
  {
    "compound": "CCS(=O)(=O)c1ccc(C)c(C#Cc2cc(Cl)ccc2OCC(=O)O)c1 [Example 50]",
    "subjectOfTest": "UniProt Q9Y5Y4",
    "pIC50": 7.96
  }
]

1. O=C(O)COc1ccc(Cl)cc1C#Cc1ccc(F)cc1F [Example 8]
2. Cc1ccc(S(=O)(=O)CCc2ccccc2)cc1C#Cc1cc(Cl)ccc1OCC(=O)O [Example 92]
3. CC(C)CS(=O)(=O)c1ccc(F)c(C#Cc2cc(Cl)ccc2OCC(=O)O)c1 [Example 105]
4. N#Cc1ccc(OCC(=O)O)c(C#Cc2cncc(S(=O)(=O)N3CCOCC3)c2)c1 [Example 77]
Exam item: Reorder the items by pIC50, least to greatest. Hello, could you send the labels back in the order asked? Thank you.
Marked response: 4, 1, 2, 3

1. CCCc1ccc(S(C)(=O)=O)cc1C#Cc1cc(Cl)ccc1OCC(=O)O [Example 49]
2. O=C(O)COc1ccc2ccccc2c1C#Cc1cccc(O)c1 [Example 147]
Exam item: # min-compare on pIC50 between 1 and 2 Answer format: the label of the selected item.
Marked response: 2
(2: 6.99, 1: 7.96)

---

Target: CRTH2 (Homo sapiens)
Experiment: [35S]GTPγS binding assay (CHO-CRTH2 cell membranes)
Type: biochemical
Design: expressed in transfected cells; host or cells: CHO-CRTH2 cells
Details: inverse agonists; 100% of Emax = activity with 1 μM PGD2
measure: Emax (%)

[
  {
    "molecule": "CS(=O)(=O)c1cc(C#Cc2cc(Cl)ccc2OCC(=O)O)ccc1-c1ccccc1",
    "subjectOfTest": "CRTH2 (Homo sapiens)",
    "Emax [%]": -11
  },
  {
    "molecule": "CC(=O)Nc1ccc(C#Cc2cc(Cl)ccc2OCC(=O)O)cc1",
    "subjectOfTest": "CRTH2 (Homo sapiens)",
    "Emax [%]": -13
  },
  {
    "molecule": "O=C(O)COc1ccc(Cl)cc1C#Cc1ccc2c(c1)S(=O)(=O)c1ccccc1-2",
    "subjectOfTest": "CRTH2 (Homo sapiens)",
    "Emax [%]": -17
  },
  {
    "molecule": "CN(C)S(=O)(=O)c1ccc(F)c(C#Cc2cc(Cl)ccc2OCC(=O)O)c1",
    "subjectOfTest": "CRTH2 (Homo sapiens)",
    "Emax [%]": -13
  },
  {
    "molecule": "Cc1ccc(S(=O)(=O)c2ccccc2)cc1C#Cc1cc(Cl)ccc1OCC(=O)O",
    "subjectOfTest": "CRTH2 (Homo sapiens)",
    "Emax [%]": -17
  },
  {
    "molecule": "CCCS(=O)(=O)c1ccc(F)c(C#Cc2cc(Cl)ccc2OC(C)C(=O)O)c1 (stereo not drawn)",
    "subjectOfTest": "CRTH2 (Homo sapiens)",
    "Emax [%]": -13
  }
]

---

Target: UniProt Q9Y5Y4
Assay: Radioligand binding Scintillation Proximity Assay ([3H]PGD2, hCRTH2-CHO cell membranes)
Design: host or cells: CHO cells
Conditions: 1.5 nM [3H]PGD2, hCRTH2-CHO cell membranes, SPA
measure: IC50 (nM)

[
  {
    "molecule": "COCCS(=O)(=O)c1ccc(F)c(C#Cc2cc(Cl)ccc2OCC(=O)O)c1",
    "subjectOfTest": "UniProt Q9Y5Y4",
    "IC50, nM": 2
  },
  {
    "molecule": "Cc1ccc(S(=O)(=O)N(C)CCCN(C)C)cc1C#Cc1cc(Cl)ccc1OCC(=O)O",
    "subjectOfTest": "UniProt Q9Y5Y4",
    "IC50, nM": 369
  },
  {
    "molecule": "CCCS(=O)(=O)c1ccc(C)c(C#Cc2cc(Cl)ccc2OC(CC(C)C)C(=O)O)c1 (stereo not drawn)",
    "subjectOfTest": "UniProt Q9Y5Y4",
    "IC50, nM": 60
  }
]

A. Cc1ccc(S(=O)(=O)Cc2ccccc2)cc1C#Cc1cc(C#N)ccc1OCC(=O)O
B. N#Cc1ccc(OCC(=O)O)c(C#Cc2cncc(S(=O)(=O)N3CC(F)(F)C3)c2)c1
C. Cc1ccc(S(=O)(=O)NCC(C)(C)C)cc1C#Cc1cc(Cl)ccc1OCC(=O)O
D. Cc1ccc(S(=O)(=O)N(C)C2CCCC2)cc1C#Cc1cc(Cl)ccc1OCC(=O)O
E. CN(C)S(=O)(=O)c1cccc(C#Cc2cc(Cl)ccc2OCC(=O)O)c1
Exam item: Falling order of IC50, please. Hello, could you send the labels back in the order asked? Thank you.
Marked response: B, E, A, D, C

P. O=C(O)COc1ccc(Cl)cc1C#Cc1cccc(S(=O)(=O)CCO)c1
Q. Cc1ncc(S(=O)(=O)N(C)C)cc1C#Cc1cc(Cl)ccc1OCC(=O)O
R. N#Cc1ccc(OCC(=O)O)c(C#Cc2cncc(S(=O)(=O)NCCO)c2)c1
S. COCCN(C)S(=O)(=O)c1ccc(C)c(C#Cc2cc(Cl)ccc2OCC(=O)O)c1
Exam item: Reorder the items by IC50, least to greatest. Hello, could you send the labels back in the order asked? Thank you.
Marked response: S, P, Q, R
(S: 5 nM, P: 12 nM, Q: 51 nM, R: 372 nM)

a. O=C(O)COc1ccc(C(F)(F)F)cc1C#Cc1ccccc1Cl
b. O=C(O)COc1ccc(Cl)cc1C#Cc1cccnc1
c. O=C(O)COc1ccc(Cl)cc1C#Cc1cc(S(=O)(=O)C(F)(F)F)ccc1Cl
d. CCCc1ccc(S(C)(=O)=O)cc1C#Cc1cc(C#N)ccc1OCC(=O)O
e. CC(C)S(=O)(=O)c1cc(C#Cc2cc(Cl)ccc2OCC(=O)O)ccc1C(=O)N1CCOCC1
Exam item: Reorder the items by IC50, least to greatest. Hello, could you send the labels back in the order asked? Thank you.
Marked response: c, a, d, e, b

a. CS(=O)(=O)c1cccc(C#Cc2cc(Cl)ccc2OCC(=O)O)c1
b. O=C(O)COc1ccc(Cl)cc1C#Cc1cccc(C(=O)N2CCOCC2)c1
c. Cc1ccc(N(C)S(C)(=O)=O)cc1C#Cc1cc(Cl)ccc1OCC(=O)O
d. CCC[S+]([O-])c1ccc(C)c(C#Cc2cc(Cl)ccc2OCC(=O)O)c1 (stereo not drawn)
e. CCCS(=O)(=O)c1ccc(C)c(C#Cc2cc(Cl)ccc2OC(CC)C(=O)O)c1 (stereo not drawn)
Exam item: Reorder the items by IC50, least to greatest. Hello, could you send the labels back in the order asked? Thank you.
Marked response: d, a, e, b, c
(d: 11 nM, a: 19 nM, e: 35 nM, b: 60 nM, c: 150 nM)

I. Cc1ccc(NS(C)(=O)=O)cc1C#Cc1cc(Cl)ccc1OCC(=O)O
II. O=C(O)COc1ccc(Cl)cc1C#Cc1ccc(CO)cc1F
Exam item: # min-compare on IC50 between I and II Answer format: the label of the selected item.
Marked response: II
